- Test system: LOX IMVI
- PROTOCOL_TEXT: NCI tumour cell line growth inhibition, 48 h
Active and inactive are the calls of the source. Cut-off read from the data, not from the text of the source: active = GI50 up to about 1.1 µM and inactive = higher.
EXPERIMENTAL_READOUT: GI50

## Task // GI50 lookup, key: CCC(CCC(C)C1CCC2C3CC=C4CC(OC5OC(CO)C(O)C(O)C5O)CCC4(C)C3CCC12C)C(C)C (stereo unspecified)
## Result > 100 µM (inactive)

## Task Same thing, different compound: O=C(Nc1nc2ccccc2s1)c1cc([N+](=O)[O-])ccc1Cl
## Result 3.44 µM (inactive)

## Task Another: Nc1nc[n+](Cc2ccccc2CCO)c2[nH]cnc12
## Result > 100 µM (inactive)

## Task O=C1Nc2ccc(S(=O)(=O)O)cc2/C1=C1/Nc2ccc(Br)cc2C1=O ?
## Result > 100 µM (inactive)

## Task Field entry: O=C1N[C@H]2C(=O)c3c(Br)sc(Br)c3[C@H]2O1
## Result 3.08 µM (inactive)

## Task Entry O=C(O)CCNc1ccccc1C(=O)O please
## Result > 100 µM (inactive)

## Task Try this compound too: Cc1cc2c(c(C(N)=O)c1C)-c1cc(Cl)cc(Cl)c1C2=O
## Result 93.3 µM (inactive)

## Task Next compound: O=[N+]([O-])c1cc(-c2ccc([As](=O)(O)O)cc2)ccc1[As](=O)(O)O
## Result > 100 µM (inactive)

## Task Consider next the compound O=C1NC(N2CCCCC2)=N/C1=C\c1cccs1 in the same way.
## Result > 100 µM (inactive)

## Task Try Oc1ccc(C2Oc3cc(O)cc4c3C2c2cc(O)cc3c2C(c2cc(O)cc5c2C4C(c2ccc(O)cc2)O5)C(c2ccc(O)cc2)O3)cc1 (stereo unspecified) next.
## Result 7.05 µM (inactive)

## Task Same thing, different compound: CCOC(=O)C1C2C1C1C(C(=O)OCC)C21 (stereo unspecified)
## Result > 100 µM (inactive)
